Method Notes: Probe fluorescence ratio response to stearic acid relative to ADIFAB2
Format: binding
Condition Summary: Table 5
Catalogue of molecules with associated ΔR/DRAΔ2 SA
Property Name: ΔR/DRAΔ2 SA

1) L2P12G9: FABP probe, substitutions M18L A73V vs SEQ ID NO: 2 (protein, listed as Rattus norvegicus, PEPTIDE (1)...(131) wild-type rat intestinal fatty acid binding protein) AFDGTWKVDRNENYEKFLEKMGINVVKRKLGAHDNLKLTITQEGNKFTVKESSNFRNIDVVFELGVDFAYSLVDGTELTGTWTMEGNKLVGKFKRVDNGKELIAVREISGNELIQTYTYEGVEAKRIFKKE: 0.4
2) L2P1E6: FABP probe, substitutions M18L A73L vs SEQ ID NO: 2 (protein, listed as Rattus norvegicus, PEPTIDE (1)...(131) wild-type rat intestinal fatty acid binding protein) AFDGTWKVDRNENYEKFLEKMGINVVKRKLGAHDNLKLTITQEGNKFTVKESSNFRNIDVVFELGVDFAYSLLDGTELTGTWTMEGNKLVGKFKRVDNGKELIAVREISGNELIQTYTYEGVEAKRIFKKE: 0.2
3) L2P11B4: FABP probe, substitutions M18V G31A A73W vs SEQ ID NO: 2 (protein, listed as Rattus norvegicus, PEPTIDE (1)...(131) wild-type rat intestinal fatty acid binding protein) AFDGTWKVDRNENYEKFVEKMGINVVKRKLAAHDNLKLTITQEGNKFTVKESSNFRNIDVVFELGVDFAYSLWDGTELTGTWTMEGNKLVGKFKRVDNGKELIAVREISGNELIQTYTYEGVEAKRIFKKE: 0.7
